Recorded values, source ChEMBL document CHEMBL5143655.

ASSAY_REMARKS: AUC (0 to infinity) in Sprague-Dawley rat at 5 mg/kg, iv measured upto 24 hrs by LC-MS/MS analysis
Format: ADME, organism-based
Set-up: dose 5 mg/kg, time < 24 hrs, route iv
ASSAY_CONDITIONS: in vivo
PROPERTY_NAME: AUC(0-inf) (ng·h/mL)

Cc1cc(C)cc(-n2nc(-c3ccc(C(F)(F)F)cc3O)nc2-c2ccccc2O)c1 = 10200

* * *

ASSAY_REMARKS: Metabolic stability in human plasma assessed as parent compound remaining at 200 uM measured after 120 min by LC-MS/MS analysis relative to control
Assay type: ADME, cell-free
ASSAY_CONDITIONS: read-out: Stability
Reported remaining at 2 h, 200 µM values for a set of compounds
PROPERTY_NAME: remaining at 2 h, 200 µM (%)

Cc1cc(C)cc(-n2nc(-c3ccc(C(F)(F)F)cc3O)nc2-c2ccccc2O)c1 = 88.9
CC(C)[N+](C)(CCOC(=O)C1c2ccccc2Oc2ccccc21)C(C)C [PROPANTHELINE] = 2.41
